System: Salmonella typhimurium
Experiment: Mutagenicity in Salmonella typhimurium TA98 assessed as mutagenic index at 1000 ug/plate by Ames test
Assay type: toxicity, organism-based
Settings: salmonella enterica subsp. enterica serovar typhimurium
Cut-off 0.9 on Activity_index: below means 1.0, at or above means 0.0.

Known results for compounds:
compound: CC(C)C(CO)NC(=O)/C=C/c1ccccc1 (racemic)
answer-label: 1.0

compound: CCC(CO)NC(=O)/C=C/c1ccccc1 (racemic)
answer-label: 1.0

stdin: A record lists CC(O)CNC(=O)/C=C/c1ccccc1 (racemic) . Is its Activity_index below 0.9?
stdout: 0.0

stdin: A record lists O=C(/C=C/c1ccccc1)N[C@H]1CCCC[C@@H]1O (racemic) . Is its Activity_index below 0.9?
stdout: 1.0

stdin: A record lists CCC(O)CNC(=O)/C=C/c1ccccc1 (racemic) . Is its Activity_index below 0.9?
stdout: 0.0

stdin: A record lists CC(CO)NC(=O)/C=C/c1ccccc1 (racemic) . Is its Activity_index below 0.9?
stdout: 1.0
